- testTarget: TRAP1 enzyme (Homo sapiens, UniProt Q12931)
- Construct: 150 nM Trap1 enzyme was incubated with various concentrations of the test compound
- assayMethodText: ADP Glo assay of TRAP1 ATPase activity
- Format: biochemical
- condition: concentration for half maximal activation; read-out: ADP GLO DRC: GeoMean EC50
pEC50: −log10 of the molar value.
List of pEC50 values.

compound | pEC50
COc1ncc(NC(=O)c2ccc3c(c2)n(C)c(=O)n3C)cc1S(=O)(=O)Nc1ccc(Cl)cc1 | > 5.00
COc1ncc(NC(=O)c2csc(-c3cccnc3)n2)cc1S(=O)(=O)Nc1ccc(F)c(F)c1C | 4.70 to 5.00
COc1ncc(NC(=O)c2csc(-c3cccc(OCC4COC(C)(C)O4)n3)n2)cc1S(=O)(=O)Nc1c(C)cccc1C (stereo not shown) | > 5.00
Cc1c[n+]([O-])c(NC(=O)c2ncc(-c3ccccc3)o2)cc1S(=O)(=O)Nc1ccc(Cl)cc1 | 4.70 to 5.00
COc1ncc(NC(=O)c2csc(-c3ccccc3)n2)cc1S(=O)(=O)Nc1cccc(C#N)n1 | 4.00 to 4.70

compound `COc1ncc(NC(=O)c2csc(-c3ccccc3)n2)cc1S(=O)(=O)Nc1ncc(Cl)cn1` , pEC50 observed: 4.00 to 4.70

compound `COc1ncc(NC(=O)c2csc(-c3ccc(F)cc3)n2)cc1S(=O)(=O)Nc1c(C)cccc1C` , pEC50 observed: > 5.00

compound `COc1ncc(NC(=O)c2coc(-c3cc(F)c(F)c(F)c3)n2)cc1S(=O)(=O)Nc1cccc(C(F)(F)F)n1` , pEC50 observed: 4.00 to 4.70

compound `COc1ncc(NC(=O)c2ncc(-c3ccccc3)o2)cc1S(=O)(=O)Nc1ccc2cnoc2c1` , pEC50 observed: 4.00 to 4.70

compound `COc1ncc(NC(=O)c2coc(-c3cccnc3)n2)cc1S(=O)(=O)Nc1c(C)cccc1C` , pEC50 observed: 4.00 to 4.70

compound `COc1ncc(NC(=O)c2csc(-c3ccccc3)n2)cc1S(=O)(=O)Nc1ccc(C#N)nc1` , pEC50 observed: 4.00 to 4.70

compound `COc1ncc(NC(=O)c2coc(-c3ccccc3)n2)cc1S(=O)(=O)Nc1c(C)cccc1C` , pEC50 observed: > 5.00

compound `COc1ncc(NC(=O)c2ccc3nc(C)sc3c2)cc1S(=O)(=O)Nc1c(C)cccc1C` , pEC50 observed: 4.70 to 5.00

----------
List of pEC50 values.
- testTarget: TRAP1 enzyme (Homo sapiens, UniProt Q12931)
- Construct: 150 nM Trap1 enzyme was incubated with various concentrations of the test compound
- assayMethodText: ADP Glo assay of TRAP1 ATPase activity
- Type: biochemical
- condition: concentration for half maximal activation; read-out: ADP GLO DRC: GeoMean EC50
pEC50: −log10 of the molar value.

compound `COc1ncc(NC(=O)c2cnc(-c3ccccc3)[nH]2)cc1S(=O)(=O)Nc1ccc(Cl)cc1` , pEC50 observed: 4.70 to 5.00

----------
- testTarget: TRAP1 enzyme (Homo sapiens, UniProt Q12931)
- Construct: 150 nM Trap1 enzyme was incubated with various concentrations of the test compound
- Sequence (Q12931 60-704): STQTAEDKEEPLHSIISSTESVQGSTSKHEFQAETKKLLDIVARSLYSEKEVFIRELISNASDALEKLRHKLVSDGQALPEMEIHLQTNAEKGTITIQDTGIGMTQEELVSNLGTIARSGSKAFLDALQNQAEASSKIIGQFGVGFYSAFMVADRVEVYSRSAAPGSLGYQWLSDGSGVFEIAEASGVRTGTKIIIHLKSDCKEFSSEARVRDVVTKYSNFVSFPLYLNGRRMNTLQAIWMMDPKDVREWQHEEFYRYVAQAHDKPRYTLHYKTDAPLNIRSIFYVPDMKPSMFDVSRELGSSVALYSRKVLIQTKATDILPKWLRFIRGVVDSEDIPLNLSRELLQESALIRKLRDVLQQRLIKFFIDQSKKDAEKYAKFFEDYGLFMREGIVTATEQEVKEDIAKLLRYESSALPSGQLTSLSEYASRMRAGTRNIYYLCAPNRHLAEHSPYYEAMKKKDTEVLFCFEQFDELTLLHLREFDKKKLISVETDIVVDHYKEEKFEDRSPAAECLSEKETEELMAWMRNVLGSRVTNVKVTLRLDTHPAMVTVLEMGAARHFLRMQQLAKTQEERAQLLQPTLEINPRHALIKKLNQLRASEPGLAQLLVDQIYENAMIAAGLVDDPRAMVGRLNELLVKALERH
- assayMethodText: ADP Glo assay of TRAP1 ATPase activity
- Format: biochemical
- condition: maximal percent activation; read-out: ADP GLO DRC: Mean Emax
List of Emax values.

Some solved entries appear below for comparison.
mol | Emax
COc1ncc(NC(=O)c2ncc(-c3ccccc3)o2)cc1S(=O)(=O)Nc1cccc(C#N)n1 | 160 to 199%
COc1ncc(NC(=O)c2csc(-c3ccccc3)n2)cc1S(=O)(=O)Nc1cc(C)n(C(C)C)n1 | 160 to 199%
COc1ncc(NC(=O)c2cn(C)c3ncccc23)cc1S(=O)(=O)Nc1c(C)cccc1C | 200 to 300%

compound `COc1ncc(NC(=O)c2cnc(-c3ccccc3)[nH]2)cc1S(=O)(=O)Nc1ccc(Cl)cc1` , Emax observed: 160 to 199%
